# ASSAY: Cmax in healthy human at 60 mg/kg, po bid
# Type: ADME, organism-based
# Design: dose 60 mg/kg, route oral
# CONDITION DESCRIPTION: in vivo
READOUT LABEL: Cmax
Answer format reminder: number followed by unit.

[ask] I would be grateful if you could share the reported Cmax for CCS(=O)(=O)NCc1cncc(-c2c(C#N)c3ccc(Cl)cc3n2C)c1 .
[reply] 173 ng/mL

###

# Tested on: Homo sapiens
# ASSAY: Dose normalized AUCtau in healthy human at 60 mg/kg, po bid
# Format: ADME, organism-based
# CONDITION DESCRIPTION: in vivo
READOUT LABEL: AUC/dose (ng·h/mL/mg)
One number for each entry, in ng·h/mL/mg.

[ask] Which measured AUC/dose belongs to CCS(=O)(=O)NCc1cncc(-c2c(C#N)c3ccc(Cl)cc3n2C)c1 , tested on Homo sapiens?
[reply] 17.1

###

# System: Homo sapiens
# ASSAY: Dose normalized AUCtau in healthy human at 100 mg/kg, po bid
# Assay type: ADME, organism-based
# CONDITION DESCRIPTION: in vivo
READOUT LABEL: AUC/dose (ng·h/mL/mg)
Numbers only, in ng·h/mL/mg.

[ask] Name the reported AUC/dose value associated with the compound CCS(=O)(=O)NCc1cncc(-c2c(C#N)c3ccc(Cl)cc3n2C)c1
[reply] 12.7

###

Could you please report measured half-life for the items listed next?
# ASSAY: Half life in continuous angiotensin 2 infusion Sprague-Dawley rat model at 3 mg/kg, po and 1 mg/kg, iv
# Assay type: ADME, organism-based
# CONDITION DESCRIPTION: in vivo

GIVEN SMILES: CCS(=O)(=O)NCc1cncc(-c2c(C#N)c3ccc(Cl)cc3n2C)c1
half-life: 66 min

Okay, now this compound:
[ask] Form field: reported half-life of CCS(=O)(=O)NCc1cncc(-c2cc3ccc(Cl)nc3n2C)c1
[reply] 24 min

###

# ASSAY: Tmax in healthy human at 200 mg/kg, po bid
# Assay type: ADME, organism-based
# CONDITION DESCRIPTION: in vivo
READOUT LABEL: Tmax (h)
Numbers only, in h.

[ask] Reported Tmax, compound CCS(=O)(=O)NCc1cncc(-c2c(C#N)c3ccc(Cl)cc3n2C)c1 : ____
[reply] 4

###

# ASSAY: Tmax in healthy human at 30 mg/kg, po bid
# Assay type: ADME, organism-based
# CONDITION DESCRIPTION: in vivo
READOUT LABEL: Tmax
Form entry: enter the amount, then its unit.

[ask] Form field: reported Tmax of CCS(=O)(=O)NCc1cncc(-c2c(C#N)c3ccc(Cl)cc3n2C)c1
[reply] 4 h

###

# System: Homo sapiens
# ASSAY: Dose normalized AUCtau in healthy human at 30 mg/kg, po bid
# Format: ADME, organism-based
# CONDITION DESCRIPTION: in vivo
READOUT LABEL: AUC/dose (ng·h/mL/mg)
Answers are plain numbers, in ng·h/mL/mg.

[ask] For the molecule CCS(=O)(=O)NCc1cncc(-c2c(C#N)c3ccc(Cl)cc3n2C)c1 , what AUC/dose is on record?
[reply] 25.6

###

# ASSAY: Cmax in healthy human at 100 mg/kg, po bid
# Assay type: ADME, organism-based
# Parameters: dose 100 mg/kg, route oral
# CONDITION DESCRIPTION: in vivo
READOUT LABEL: Cmax (ng/mL)
One number for each entry, in ng/mL.

[ask] Look at this compound and give its reported Cmax. CCS(=O)(=O)NCc1cncc(-c2c(C#N)c3ccc(Cl)cc3n2C)c1
[reply] 173
